- experiment-description: AUC (0 to infinity) in CB17 mouse at 9 mg/kg, iv by LC/MS/MS method
- Format: ADME, organism-based
- Set-up: time infinity, dose 9 mg/kg, route intravenous
- condition-notes: plasma
value-kind: AUC(0-inf) (µg·h/mL)
# unit: µg·h/mL | format: bare number

I have this molecule here, O=C1Nc2ccccc2-c2ccnc3[nH]cc(c23)C1c1ccc(O)cc1 (stereo unspecified) , and I need its recorded AUC(0-inf). 12.5

* * *

- experiment-description: Oral bioavailability life in CB17 mouse at 10 mg/kg by LC/MS/MS method
- Assay type: ADME, organism-based
- condition-notes: in vivo
value-kind: bioavailability (%)
The response must be a number in % with no trailing unit.

Query (compound): O=C1Nc2ccccc2-c2ccnc3[nH]cc(c23)C1c1ccc(O)cc1 (stereo unspecified) ; field requested: bioavailability 66.1

* * *

- experiment-description: Clearance in Sprague-Dawley rat at 1.8 mg/kg, iv by LC/MS/MS method
- Assay type: ADME, organism-based
- Design: dose 1.8 mg/kg, route intravenous
- condition-notes: in vivo
value-kind: clearance (mL/min/kg)
Express your answer in mL/min/kg, writing the number without its unit.

What does the data say about its clearance? Entry: O=C1Nc2ccccc2-c2ccnc3[nH]cc(c23)C1c1ccc(O)cc1 (stereo unspecified) 23.8

* * *

- experimental-target: UniProt P52333
- Sequence (P52333 whole entry): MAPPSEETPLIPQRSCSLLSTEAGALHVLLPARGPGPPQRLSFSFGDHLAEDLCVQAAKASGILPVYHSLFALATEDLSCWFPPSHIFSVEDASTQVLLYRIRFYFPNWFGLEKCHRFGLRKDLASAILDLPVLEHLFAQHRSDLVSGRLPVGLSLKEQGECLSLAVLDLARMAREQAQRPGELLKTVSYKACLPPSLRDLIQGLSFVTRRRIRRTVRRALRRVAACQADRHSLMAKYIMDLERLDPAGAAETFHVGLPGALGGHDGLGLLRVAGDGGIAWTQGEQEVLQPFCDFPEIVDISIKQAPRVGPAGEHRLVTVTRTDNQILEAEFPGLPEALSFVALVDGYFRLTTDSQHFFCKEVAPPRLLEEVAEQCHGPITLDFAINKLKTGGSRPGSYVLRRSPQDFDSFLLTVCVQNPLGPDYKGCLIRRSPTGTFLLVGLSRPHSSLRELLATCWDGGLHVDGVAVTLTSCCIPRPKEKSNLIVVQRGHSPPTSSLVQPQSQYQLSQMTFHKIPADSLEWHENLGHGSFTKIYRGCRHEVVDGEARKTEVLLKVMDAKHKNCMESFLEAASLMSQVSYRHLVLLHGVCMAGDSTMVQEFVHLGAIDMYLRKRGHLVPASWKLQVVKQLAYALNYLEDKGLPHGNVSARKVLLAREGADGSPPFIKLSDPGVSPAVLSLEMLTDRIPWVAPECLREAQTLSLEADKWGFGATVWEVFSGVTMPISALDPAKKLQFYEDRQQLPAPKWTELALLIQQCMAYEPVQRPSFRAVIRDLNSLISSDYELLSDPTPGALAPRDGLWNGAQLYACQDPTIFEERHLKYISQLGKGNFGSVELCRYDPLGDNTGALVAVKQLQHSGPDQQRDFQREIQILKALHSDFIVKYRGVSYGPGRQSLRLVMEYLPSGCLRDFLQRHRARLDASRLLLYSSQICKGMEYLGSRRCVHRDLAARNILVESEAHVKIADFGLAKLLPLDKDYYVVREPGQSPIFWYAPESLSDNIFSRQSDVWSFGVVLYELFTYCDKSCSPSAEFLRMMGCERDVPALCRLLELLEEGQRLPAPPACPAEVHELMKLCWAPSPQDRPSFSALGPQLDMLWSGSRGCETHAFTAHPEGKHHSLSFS
- experiment-description: Inhibition of recombinant JAK3
value-kind: Ki

What does the record list as Ki for O=C1Nc2ccccc2-c2ccnc3[nH]cc(c23)C1c1ccc(O)cc1 (single isomer, unassigned; atropisomer 2) ? 6 nM

What value of Ki has been reported for the following compound? O=C1Nc2ccccc2-c2ccnc3[nH]cc(c23)C1c1ccc(O)cc1 (single isomer, unassigned; atropisomer 1) 5.5 nM
